Target: TRPML1 (Homo sapiens, UniProt Q9GZU1)
Sequence (Q9GZU1 whole entry L15A/L16A/L577A/L578A, form open): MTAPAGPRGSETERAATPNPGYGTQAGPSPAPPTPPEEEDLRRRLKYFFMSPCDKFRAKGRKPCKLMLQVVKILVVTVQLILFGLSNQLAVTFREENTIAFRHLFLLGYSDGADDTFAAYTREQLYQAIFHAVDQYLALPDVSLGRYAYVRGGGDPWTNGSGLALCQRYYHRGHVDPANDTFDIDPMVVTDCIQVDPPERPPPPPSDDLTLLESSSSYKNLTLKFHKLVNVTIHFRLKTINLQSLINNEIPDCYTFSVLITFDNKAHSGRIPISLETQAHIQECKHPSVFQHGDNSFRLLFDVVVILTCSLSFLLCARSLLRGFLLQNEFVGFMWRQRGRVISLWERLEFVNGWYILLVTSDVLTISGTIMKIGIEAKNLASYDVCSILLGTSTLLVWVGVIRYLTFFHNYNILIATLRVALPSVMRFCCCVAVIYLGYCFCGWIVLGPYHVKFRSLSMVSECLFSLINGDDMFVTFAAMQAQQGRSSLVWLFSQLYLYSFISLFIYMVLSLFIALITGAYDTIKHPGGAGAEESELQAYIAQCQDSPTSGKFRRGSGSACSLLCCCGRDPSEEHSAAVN
Assay: Fluorescent TRPML1 assay (Fluo4-AM calcium fluorescence in doxycycline-induced HEK-293 Trex cells)
Assay type: cell-based
Settings: fluorescent calcium assay
pEC50: −log10 of the molar value.
Collected pEC50 values appear next to each entry.

{"columns": ["line.notation", "assayed.target", "observed.measurement"],
 "data": [
  ["C[C@@H]1CN(c2ncnc3c2c(C2CC2)cn3-c2cc(F)c(F)c(Cl)c2)CCN1C(=O)OC(C)(C)C", "TRPML1 (Homo sapiens, UniProt Q9GZU1)", "> 7.00"]
]}

Look up pEC50: C[C@H]1CN(C(=O)OC(C)(C)C)CCN1c1ncnc2c1c(-n1ccnc1)cn2-c1cccc(Cl)c1 6.30 to 7.00

Entry CCOC(=O)N1CCN(c2ncnc3c2c(-c2ccccn2)cn3-c2ccc(F)c(Cl)c2)[C@@H](C)C1 has what pEC50? 6.30 to 7.00

I am curious: what pEC50 value has been reported for C[C@@H]1CN(c2ncnc3c2c(-c2ccncc2)cn3-c2cc(F)cc(F)c2)CCN1C(=O)OC(C)(C)C ? > 7.00

Give the measured pEC50 of C[C@H]1CN(C(=O)OC(C)(C)C)CCN1c1ncnc2c1c(N1CCOCC1)cn2C1CCCCC1 . 6.30 to 7.00

Value lookup for pEC50; key = C[C@@H]1CN(c2ncnc3c2c(C2CC2)cn3-c2cc(F)cc(Cl)c2)CCN1C(=O)OC(C)(C)C > 7.00

# query: pEC50 of entry C[C@H]1CN(C(=O)OC(C)(C)C)CCN1c1ncnc2c1c(-c1ccccc1F)cn2-c1ncc(C#N)s1 > 7.00
